These data points were gathered from ChEMBL document CHEMBL2406985.

Tested on: Aspergillus flavus
Experiment: Antifungal activity against Aspergillus flavus ATCC 44310 at 0.1 mg/uL per disc after 48 hrs by disc diffusion test
Assay type: functional
Listing of recorded diameter of the inhibition zone (DIZ) by entry.
Reply with the number, then its unit.

- compound: "CCN(CC)CCC(C)COc1c(Cl)cc(Cl)c2ccc(C)nc12 (centres undefined)"
  measurement-kind: "diameter of the inhibition zone (DIZ)"
  result: "10 mm"
- compound: "CC(CCNCc1ccc(Cl)cc1)COc1c(I)cc(I)c2cccnc12 (centres undefined)"
  measurement-kind: "diameter of the inhibition zone (DIZ)"
  result: "0 mm"
- compound: "Clc1ccc(CNCCCCOc2ccc3ncccc3c2)cc1"
  measurement-kind: "diameter of the inhibition zone (DIZ)"
  result: "0 mm"

# input compound: Clc1ccc(CNCCCCOc2ccc(Cl)c3cccnc23)cc1 ; wanted: its diameter of the inhibition zone (DIZ)
0 mm
